Data origin: ChEMBL document CHEMBL3885861

Below, each entry is listed with its recorded A/G.
Species: Rattus norvegicus
ASSAY_INFO: Open TG-GATES - Regimen: Single
Format: toxicity, organism-based, Sprague-Dawley
Parameters: regimen Single, gender Male, age 6 weeks
MEASUREMENT_PARAMETERS: in vivo, po, 300 mg/kg, 24 h, tissue Plasma, route gavage, dose level Middle
MEASURED_METRIC: A/G

STRUCTURE_STRING	MEASURED_METRIC	VALUE_OBSERVED
CN/C(=N/CCSCc1nc[nH]c1C)NC#N	A/G	1.6
Cc1nnc2n1-c1ccc(Cl)cc1C(c1ccccc1Cl)=NC2	A/G	0.9
CNC(=C[N+](=O)[O-])NCCSCc1ccc(CN(C)C)o1	A/G	1.7
O=C(OC[C@H]1O[C@@H](OC(=O)c2cc(O)c(O)c(OC(=O)c3cc(O)c(O)c(O)c3)c2)[C@H](OC(=O)c2cc(O)c(O)c(OC(=O)c3cc(O)c(O)c(O)c3)c2)[C@@H](OC(=O)c2cc(O)c(O)c(OC(=O)c3cc(O)c(O)c(O)c3)c2)[C@@H]1OC(=O)c1cc(O)c(O)c(OC(=O)c2cc(O)c(O)c(O)c2)c1)c1cc(O)c(O)c(OC(=O)c2cc(O)c(O)c(O)c2)c1	A/G	1.7

###

Species on record: Rattus norvegicus
ASSAY_INFO: Open TG-GATES - Regimen: Daily Repeat
Format: toxicity, organism-based, Sprague-Dawley
Design: regimen Daily Repeat, gender Male, age 6 weeks
MEASUREMENT_PARAMETERS: in vivo, po, 0 mg/kg, 72 h, tissue Kidney, route gavage, dose level Control, time 3 day
MEASURED_METRIC: KIDNEY_L (g)

> print(dat)
                           structure.string  output.unit  value.observed
1                                Brc1ccccc1            g             0.9
2  COC(=O)C1=C(C)NC(C)=C(C(=O)OC)C1c1ccccc1[N+](=O)[O-]            g               1
3   CNC(=C[N+](=O)[O-])NCCSCc1ccc(CN(C)C)o1            g             1.1
4                      CC(C)NNC(=O)c1ccncc1            g               1
5                      CCOc1ccc(NC(C)=O)cc1            g               1
6              CN/C(=N/CCSCc1nc[nH]c1C)NC#N            g               1

###

Organism: Rattus norvegicus
ASSAY_INFO: Open TG-GATES - Regimen: Daily Repeat
Format: toxicity, organism-based, Sprague-Dawley
Parameters: regimen Daily Repeat, gender Male, age 6 weeks
MEASUREMENT_PARAMETERS: in vivo, po, 300 mg/kg, […], tissue Blood, route gavage, dose level Middle, time 28 day
So basically, if Lym comes in under 80% it's met, and if it's 80% or more it's not met.

STRUCTURE_STRING	LABEL_CLASS
CN/C(=N/CCSCc1nc[nH]c1C)NC#N	not met
COC(=O)C1=C(C)NC(C)=C(C(=O)OC)C1c1ccccc1[N+](=O)[O-]	met
CCOc1ccc(NC(C)=O)cc1	met
